PROTOCOL NOTES: chemical genetic growth profiling, strain panel (AID 1159580);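 further: tested at 20 µM; growth read once vehicle control cultures reached saturation at 30 °C; 1 = growth at the plate median or of vehicle wells; lower values mean less growth of the strain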
ASSAY CONDITIONS: S. cerevisiae deletion strains, growth OD, locus YLL026W
In all, about 5,500 compounds went through this assay and about 2,000 (36%) were called active. Inconclusive results (about 18%) are left out. No stated cut-off is given here; in the data, active means normalized growth mostly below about 0.91 (no sharp cut-off); inconclusive means no clear call, values can overlap the other calls; inactive means mostly above about 0.92. The list shows a part of the results.
The categories you may choose from are active, inactive

{"columns": ["COMPOUND", "LABEL VALUE"],
 "data": [
  ["CC1(C)CC2C1CCC1(C)OC1CCC2(C)O (configuration not stated)", "inactive"],
  ["CCCNC(C)C(=O)Nc1ccccc1C (configuration not stated)", "inactive"],
  ["O=C(O)CCCCC1SCC2NC(=O)NC21 (configuration not stated)", "inactive"],
  ["COc1ccc(/C=C/C(=O)c2cc(O)ccc2O)cc1", "active"],
  ["O=C1O[C@@H](CO)[C@H](O)[C@@H](O)[C@@H]1O", "inactive"],
  ["CCOC(=O)CCCCCCCCCCCCC1C=CCC1 (configuration not stated)", "inactive"]
]}

Next up:
-- ask Assay result, entry CC1(C)CC2C1CCC1(C)OC2(C)CCC1O (configuration not stated) — outcome?
-- reply inactive

====

PROTOCOL NOTES: chemical genetic growth profiling, strain panel (AID 1159580)
ASSAY CONDITIONS: S. cerevisiae deletion strains, growth OD, locus YMR129W, hits give low values
Out of some 5,500 compounds screened, about 2,000 (36%) were called active. Roughly 18% stayed inconclusive and do not appear here. The list shows a part of the results.
PROPERTY NAME: normalized growth
Write the value as a bare number.

Here is how some compounds turned out for normalized growth.
{"columns": ["COMPOUND", "normalized growth"],
 "data": [
  ["NCc1ccc(S(N)(=O)=O)cc1", 1],
  ["Nc1nc2ncc(CNc3ccc(C(=O)N[C@@H](CCC(=O)O)C(=O)O)cc3)nc2c(=O)[nH]1", 1],
  ["COc1cc(C)c2c(c1C=O)Oc1c(c(C)c(O)c3c1C(O)OC3=O)OC2=O (centres undefined)", 1.01]
]}

Please find the next compound below.
-- ask Can you share its normalized growth? I mean this compound: CN(Cc1cnc2nc(N)nc(N)c2n1)c1ccc(C(=O)NC(CCC(=O)O)C(=O)O)cc1 (centres undefined)
-- reply 0.948

====

PROTOCOL NOTES: chemical genetic growth profiling, strain panel (AID 1159580);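 further: tested at 20 µM; growth read once vehicle control cultures reached saturation at 30 °C; 1 = growth at the plate median or of vehicle wells; lower values mean less growth of the strain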
ASSAY CONDITIONS: S. cerevisiae deletion strains, growth OD, locus YOR231W, strain MKK1
The whole screen tested about 5,500 compounds, of which about 2,000 (36%) were called active. Another 18% or so got no clear call; they are omitted. Cut-off read from the data, not from the text of the source: active = normalized growth mostly below about 0.91 (no sharp cut-off); inconclusive = no clear call, values can overlap the other calls; inactive = mostly above about 0.92. This is one part of the list.
The categories you may choose from are Yes for active, No for inactive

See these solved cases before continuing.
{"columns": ["MOLECULE", "LABEL VALUE"],
 "data": [
  ["Nc1ccc(S(=O)(=O)O)cc1", "No"],
  ["O=C(O)CCCCCCCCCCCCC1C=CCC1 (stereo unspecified)", "No"],
  ["COc1ccc(-c2cc(C(F)F)nn2-c2ccc(S(N)(=O)=O)cc2)cc1F", "No"]
]}

-- ask Assay result, entry `COc1cc(N=Cc2cc(Cl)cc(Cl)c2OC(=O)c2cc(OC)c(OC)c(OC)c2)c(OC)cc1Cl` — outcome?
-- reply Yes

-- ask Assay result, entry CC[C@@]1(C2O[C@@H](C3O[C@@](O)(CC)[C@H](C)C[C@@H]3C)C[C@@H]2C)CC[C@H]([C@]2(C)CCC3(C[C@H](O)[C@@H](C)[C@@H]([C@H](C)[C@@H](OC)[C@H](C)C(=O)O)O3)O2)O1 (stereo partly specified) — outcome?
-- reply No

-- ask Assay result, entry CCC(COC(=O)c1cc(OC)c(OC)c(OC)c1)(c1ccccc1)N(C)C (stereo unspecified) — outcome?
-- reply No

-- ask Assay result, entry `COc1ccc(/C=C/C(=O)c2cc(O)ccc2O)cc1` — outcome?
-- reply Yes

-- ask Assay result, entry CC(Cc1ccc(O)c(O)c1)(NN)C(=O)O (stereo unspecified) — outcome?
-- reply No

-- ask Assay result, entry `COC(=O)[C@H]1[C@H]2C[C@@H]3c4[nH]c5cc(OC)ccc5c4CCN3C[C@H]2C[C@@H](OC(=O)c2cc(OC)c(OC)c(OC)c2)[C@@H]1OC` — outcome?
-- reply No

-- ask Assay result, entry N[C@@H](CCC(=O)N[C@@H](CCSC(CC(=O)O)C(=O)O)C(=O)NCC(=O)O)C(=O)O (stereo partly specified) — outcome?
-- reply No

-- ask Assay result, entry C#C[C@]1(O)CCC2C3CCc4cc(OC)ccc4C3CC[C@@]21C (stereo partly specified) — outcome?
-- reply No

-- ask Assay result, entry `C[C@](N)(Cc1ccc(O)c(O)c1)C(=O)O` — outcome?
-- reply No

-- ask Assay result, entry `COc1ccc(/C=C/C(=O)O)cc1OC` — outcome?
-- reply No

-- ask Assay result, entry `CC/C=C\C/C=C\C/C=C\C/C=C\C/C=C\CCCC(=O)OCC` — outcome?
-- reply No

-- ask Assay result, entry COc1cc(C)c2c(c1C=O)Oc1c(c(C)c(O)c3c1C(O)OC3=O)OC2=O (stereo unspecified) — outcome?
-- reply No

-- ask Assay result, entry CC12CC[C@@H](O)CC1=CC[C@@H]1C2CCC2(C)C(=O)CC[C@@H]12 (stereo partly specified) — outcome?
-- reply No

-- ask Assay result, entry `COc1ccc(/C=C/C(=O)c2ccc(O)cc2O)cc1` — outcome?
-- reply Yes

-- ask Assay result, entry CCOC(=O)C(C)(N)Cc1ccc(O)c(O)c1 (stereo unspecified) — outcome?
-- reply No

-- ask Assay result, entry `C[C@](N)(Cc1ccc(O)cc1)C(=O)O` — outcome?
-- reply No

-- ask Assay result, entry CCCCC(CC)CN=C(N)NC(N)=NCCCCCCN=C(N)NC(N)=NCC(CC)CCCC (stereo unspecified) — outcome?
-- reply Yes

====

PROTOCOL NOTES: chemical genetic growth profiling, strain panel (AID 1159580);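 further: tested at 20 µM; growth read once vehicle control cultures reached saturation at 30 °C; 1 = growth at the plate median or of vehicle wells; lower values mean less growth of the strain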
ASSAY CONDITIONS: S. cerevisiae deletion strains, growth OD, locus YLR371W, strain rom2, hits give low values
About 2,000 (36%) of roughly 5,500 compounds were called active. Inconclusive results (about 18%) are left out. Some of the results follow.
Consider the following compounds and their measured normalized growth readings.
Write the value as a bare number.

Here is how some compounds turned out for normalized growth.
{"columns": ["COMPOUND", "PROPERTY NAME", "NUMBER"],
 "data": [
  ["CC1=CC(=O)CC(C)(C)C1(O)/C=C/C(C)=C\\C(=O)O (stereo unspecified)", "normalized growth", 0.952],
  ["CCn1cc(C(=O)O)c(=O)c2cnc(N3CCCC3)nc21", "normalized growth", 0.998],
  ["CCn1cc(C(=O)O)c(=O)c2cnc(N3CCNCC3)nc21", "normalized growth", 0.981]
]}

-- ask Can you share its normalized growth? I mean this compound: `CCn1cc(C(=O)O)c(=O)c2cc3c(cc21)OCO3`
-- reply 0.993

-- ask Can you share its normalized growth? I mean this compound: CC(COc1ccccc1)N(CCCl)Cc1ccccc1 (stereo unspecified)
-- reply 1.02

-- ask Can you share its normalized growth? I mean this compound: `CCn1cc(C(=O)O)c(=O)c2ccc(C)nc21`
-- reply 0.941

====

PROTOCOL NOTES: chemical genetic growth profiling, strain panel (AID 1159580);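 further: tested at 20 µM; growth read once vehicle control cultures reached saturation at 30 °C; 1 = growth at the plate median or of vehicle wells; lower values mean less growth of the strain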
ASSAY CONDITIONS: S. cerevisiae deletion strains, growth OD, locus YPR141C, strain kar3, hits give low values
In all, about 5,500 compounds went through this assay and about 2,000 (36%) were called active. About 18% were inconclusive and are not listed. Some of the results follow.
PROPERTY NAME: normalized growth

Here is how some compounds turned out for normalized growth.
{"columns": ["COMPOUND", "normalized growth"],
 "data": [
  ["O=C(O)CCCCC1SCC2NC(=O)NC21 (configuration not stated)", "1.01 (inactive)"],
  ["CC12CCCC(O)(C1)C1CC(C)(C)C1CC2 (configuration not stated)", "1 (inactive)"],
  ["Cc1cccc(CN2CCN(C(c3ccccc3)c3ccc(Cl)cc3)CC2)c1 (configuration not stated)", "0.989 (inactive)"],
  ["CC1(C)CC2C1CCC1(C)OC1CCC2(C)O (configuration not stated)", "0.991 (inactive)"],
  ["CC(=O)C1=C(O)C2C3c4c[nH]c5cccc(c45)CC3C(C)(C)N2C1=O (configuration not stated)", "1 (inactive)"]
]}

-- ask Can you share its normalized growth? I mean this compound: `CCOP(=S)(OCC)SCCSCC`
-- reply 0.968 (inactive)

-- ask Can you share its normalized growth? I mean this compound: `CCOP(=S)(OCC)SCSP(=S)(OCC)OCC`
-- reply 0.949 (inactive)

-- ask Can you share its normalized growth? I mean this compound: `COc1c(C(=O)O)ccc2c1CCC(C)(C)O2`
-- reply 0.942 (inactive)

-- ask Can you share its normalized growth? I mean this compound: `O=C1O[C@@H](CO)[C@H](O)[C@@H](O)[C@@H]1O`
-- reply 0.989 (inactive)

-- ask Can you share its normalized growth? I mean this compound: `CCOP(=S)(OCC)SCSCC`
-- reply 1.01 (inactive)

-- ask Can you share its normalized growth? I mean this compound: COc1c(C2COc3cc4c(cc3C2=O)CC(O)C(C)(C)O4)ccc2c1CCC(C)(C)O2 (configuration not stated)
-- reply 1.01 (inactive)

-- ask Can you share its normalized growth? I mean this compound: CCOC(=O)CCCCCCCCCCCCC1C=CCC1 (configuration not stated)
-- reply 0.99 (inactive)
